Target: cynomolgus BCMA-Fc (cynomolgus)
Sequence (chain, as listed by the source): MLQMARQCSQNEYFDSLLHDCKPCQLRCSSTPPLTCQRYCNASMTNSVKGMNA
Test: SPR, 25C
pKd reference
Please report pKd as the negative decimal logarithm of the molar concentration, giving only the number.

[
  {
    "Binder": "P1AG5014 (54_VH1a_Y292D/VL1a_L1_pGL) (antibody, V domains shown) VH: EVQLVESGGGLVKPGGSLRLSCAASGFTFSNAWMDWVRQAPGKGLEWVGQITAKSNNYATDYAAPVKGRFTISRDDSKNTLYLQMNSLKTEDTAVYYCTDDGYHWGQGTLVTVSS VL: AIQMTQSPSSLSASVGDRVTITCRASEDIRNDLGWYQQKPGKAPKLLIYNANSLHTGVPSRFSGSGSGTDFTLTISSLQPEDFATYYCEDTSKYPYTFGQGTKLEIK",
    "Observed Result": 9.96
  }
]

Read the next record carefully.
query: Fill blank: measured pKd of the binder P1AG5031 (54_VH2a/VL2a) (antibody, V domains shown) VH: EVQLLESGGGLVQPGGSLRLSCAASGFTFSNAWMDWVRQAPGKGLEWVSQITAKSNNYATYYADSVKGRFTISRDNSKNTLYLQMNSLRAEDTAVYYCTDDGYHWGQGTLVTVSS VL: DIQMTQSPSSLSASVGDRVTITCRASEDIRNGLAWYQQKPGKAPKLLIYNANSLHTGVPSRFSGSGSGTDFTLTISSLQPEDFATYYCEDTSKYPYTFGQGTKLEIK is ____.
result: 8.33
